B1: SFRS1 (parent)
chain: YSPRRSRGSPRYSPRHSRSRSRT

# Variants of: B1
# Test: protein stability index of a GFP-peptide fusion (GPS, HEK-293T) (PSI 1-6); higher = more stable;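 note: lentivirally expressed fusions sorted by FACS into six bins by GFP to DsRed ratio, PSI derived from sequencing read proportions per bin multiplied by bin number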
# Test settings: c terminus: native
Parameter threshold = 3. Response is t when protein stability index meets or exceeds it, else f.

Seq string: YSPRRSRGSGRYSPRHSRSRSRT
Class name: t
--
Seq string: YSPRRSRGSPAYSPRHSRSRSRT
Class name: t

Query string: Decide: is the reported value of protein stability index for ASPRRSRGSPRYSPRHSRSRSRT equal to or greater than 3?
Result string: t

Query string: Decide: is the reported value of protein stability index for YSPRRSRGSPRYSPRHKRSRSRT equal to or greater than 3?
Result string: t

Query string: Decide: is the reported value of protein stability index for YSPRRSMGSPRYSPRHSRSRSRT equal to or greater than 3?
Result string: f

Query string: Decide: is the reported value of protein stability index for YSPRRSRGSPRYSSRHSRSRSRT equal to or greater than 3?
Result string: t

Query string: Decide: is the reported value of protein stability index for YSPRRSRGLPRYSPRHSRSRSRT equal to or greater than 3?
Result string: t

Query string: Decide: is the reported value of protein stability index for YSPVRSRGSPRYSPRHSRSRSRT equal to or greater than 3?
Result string: t

Query string: Decide: is the reported value of protein stability index for YSPDRSRGSPRYSPRHSRSRSRT equal to or greater than 3?
Result string: f

Query string: Decide: is the reported value of protein stability index for YSDRRSRGSPRYSPRHSRSRSRT equal to or greater than 3?
Result string: t

Query string: Decide: is the reported value of protein stability index for YSPRRSRGSPRYSPCHSRSRSRT equal to or greater than 3?
Result string: f

Query string: Decide: is the reported value of protein stability index for YSPRPSRGSPRYSPRHSRSRSRT equal to or greater than 3?
Result string: f

Query string: Decide: is the reported value of protein stability index for YSPRLSRGSPRYSPRHSRSRSRT equal to or greater than 3?
Result string: f

Query string: Decide: is the reported value of protein stability index for YSPRRSRGSPRYSPRHYRSRSRT equal to or greater than 3?
Result string: t

Query string: Decide: is the reported value of protein stability index for YSPQRSRGSPRYSPRHSRSRSRT equal to or greater than 3?
Result string: t
